Biological target: glutathione S-transferase [GST: P08515]
Sequence (P08515 whole entry): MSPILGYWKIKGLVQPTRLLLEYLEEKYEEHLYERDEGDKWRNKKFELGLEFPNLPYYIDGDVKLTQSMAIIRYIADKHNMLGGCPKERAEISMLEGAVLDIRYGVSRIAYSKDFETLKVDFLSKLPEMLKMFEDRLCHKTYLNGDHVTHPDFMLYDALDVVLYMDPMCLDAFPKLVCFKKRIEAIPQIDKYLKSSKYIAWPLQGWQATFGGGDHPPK
Experiment: indirect ELISA, GST coated
// values below are reported ELISA affinity (LogIC50 (oD450nm))
PROPERTY_MEASURED: ELISA affinity (LogIC50 (oD450nm))

G1 (VHH) VHH: QVQLVESGGGLVQAGGSLRLSCAAPGSTFSTNIIAWYRQPPGKQRELVAAIGGPGSTNYADSVKGRFTISRDNAKNTGYLQMKSLKPDDTAVYYCNMVTQRGNEYWGQGTQVTVSS
2.93
G67 (VHH) VHH: HVQLVESGGGLVQAGGSLRLSCVASGHTVSNYAMAWFRQAPGKEREFVAGISWRATLTYYRDSVKGRFTISRDNAKNTVYLQMSSLKPEDTAVYFCASDRTPYVSRGTSLVEYDYWGQGTQVTVSS
3.6
G27 (VHH) VHH: DVQLVESGGDLVQAGGSLRLSCSASGNIFKINDMDWYRQAPGKQRELVARISSSGSTNYADSVKGRFTISRDNGKNTVYLQMNRVKPEDTAVYYCNADVQVSRNYEYEYWGQGTQVTVSS
1.36
G70 (VHH) VHH: QVQLVESGGGLVQAGGSLRLSCAASGATFSINAIGWYRQAPGKQRELVAVIKSGNSINYADSVKGRFTISRDHAKNTVYLQMNNLKPEDTAVYYCHADQPPETGWGTWNDLWGQGTQVTVSS
1.75

The measurements presented in this section are drawn from patent US20230176070A1.
